Reported EC50 values for a set of compounds
Test system: CEM cells HIV-1 protection, formazan growth assay
experiment-description: NCI AIDS Antiviral Assay

>  <compound>
C1CCC2(CC1)CCCN2

>  <EC50>
> 200 µM

$$$$
>  <compound>
O=c1c2ccccc2[nH]c(=S)n1-c1ccc(Br)cc1

>  <EC50>
> 40.7 µM

$$$$
>  <compound>
CC(=O)NC(CCCN(Cc1ccccc1)C(=O)N(CCCl)N=O)C(=O)NCc1ccccc1 (centres undefined)

>  <EC50>
> 74.1 µM

$$$$
>  <compound>
COC(=O)c1cc(C(=CCN[C@@H]2CC[C@@]3(C)[C@@H](CC[C@@H]4[C@@H]3CC[C@]3(C)[C@@H]([C@H](C)CCCC(C)C)CC[C@@H]43)C2)c2cc(Cl)c(OC)c(C(=O)OC)c2)cc(Cl)c1OC

>  <EC50>
> 100 µM

$$$$

----------
Tested on: CEM cells HIV-1 protection, formazan growth assay
experiment-description: NCI AIDS Antiviral Assay;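 active = compounds giving half or more protection of infected cells from virus-caused growth loss, again on retest; inactive = the rest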
Possible outcomes: 1.0 (active), 0.0 (inactive)

>  <compound>
CSC1=C(c2ccc(Cl)cc2)SC(N2CCCCC2)N1c1ccc([N+](=O)[O-])cc1 (stereo unspecified)

>  <class>
0.0

$$$$
>  <compound>
CCN(CC)CCNc1ccc2ncn3c4c(OC)ccc(OC)c4c(=O)c1c23

>  <class>
0.0

$$$$
>  <compound>
COc1ccc2nc3cc([N+](=O)[O-])ccc3c(NNc3ccc(Cl)cc3)c2c1

>  <class>
0.0

$$$$
>  <compound>
CCOC(=O)/C(C#N)=C/c1ccco1

>  <class>
0.0

$$$$
>  <compound>
O=C(O)CCC(NC(=O)c1ccc(Oc2nc3ccccc3nc2-c2ccccc2)cc1)C(=O)O (stereo unspecified)

>  <class>
0.0

$$$$
>  <compound>
O=C1/C(=C/c2ccc3c(c2)OCCO3)CCC/C1=C\c1ccc2c(c1)OCCO2

>  <class>
0.0

$$$$
>  <compound>
O=P1(Oc2ccccc2)NCc2ncccc2O1 (stereo unspecified)

>  <class>
0.0

$$$$
>  <compound>
O=c1[nH]nc(Cc2ccccc2)n1C1CCCC1

>  <class>
0.0

$$$$
>  <compound>
CCOC(=O)Cc1ccc(Nc2nc3ccccc3nc2C(=O)OCC)cc1

>  <class>
1.0

$$$$
>  <compound>
NN1CCc2ccccc2C1

>  <class>
0.0

$$$$
>  <compound>
C[n+]1c2ccccc2n2c3ccccc3c(NCCc3ccccn3)c(C#N)c21

>  <class>
0.0

$$$$

----------
Overview of reported EC50 across a group of compounds:
System: CEM cells HIV-1 protection, formazan growth assay
experiment-description: NCI AIDS Antiviral Assay
assay-endpoint: EC50

>  <compound>
COC(=O)C1(CC(=O)OC(C)(C)C)NCCc2c1[nH]c1ccccc21 (stereo not given)

>  <assay-endpoint>
EC50

>  <meas-value>
> 115 µM

$$$$
>  <compound>
C#CC1=CC(=O)C(OC)=CC1=O

>  <assay-endpoint>
EC50

>  <meas-value>
> 200 µM

$$$$
>  <compound>
COc1ccc(CC2=CC(=O)C(=O)C=C2C)cc1

>  <assay-endpoint>
EC50

>  <meas-value>
> 56.2 µM

$$$$
>  <compound>
C=CCC1(Sc2ccccn2)Sc2ccc3ccccc3c2-c2c(ccc3ccccc23)S1

>  <assay-endpoint>
EC50

>  <meas-value>
> 100 µM

$$$$
>  <compound>
NCCSSCCCCSSCCN

>  <assay-endpoint>
EC50

>  <meas-value>
> 200 µM

$$$$
>  <compound>
CCOC(=O)c1cc(N/N=C2/CCCNC2=O)c[nH]1

>  <assay-endpoint>
EC50

>  <meas-value>
> 200 µM

$$$$
>  <compound>
COc1cccc(N=N/C(=N/NC(=O)c2cc(Cl)ccc2O)c2ccc(N(CCC#N)CCC#N)cc2C)c1

>  <assay-endpoint>
EC50

>  <meas-value>
> 200 µM

$$$$
>  <compound>
CCOC(=O)/C(=C/c1ccc(N(C)C)cc1)N(CC)CC

>  <assay-endpoint>
EC50

>  <meas-value>
> 46.8 µM

$$$$
>  <compound>
COC(=O)/C(=N\Nc1nc(=S)[nH]n1N)C(C#N)c1ccccc1 (stereo not given)

>  <assay-endpoint>
EC50

>  <meas-value>
> 178 µM

$$$$
>  <compound>
C=C(C)C1CC[C@@](C)(O)[C@H](C#N)C1 (stereo not given in full)

>  <assay-endpoint>
EC50

>  <meas-value>
> 200 µM

$$$$
>  <compound>
COC(=O)[C@H](Cc1c[nH]c2ccccc12)NP(=O)(O)OC[C@H]1O[C@@H](n2cc(C)c(=O)[nH]c2=O)C[C@@H]1N=[N+]=[N-]

>  <assay-endpoint>
EC50

>  <meas-value>
28.2 µM

$$$$
>  <compound>
COc1cc(-c2cc(=O)c3c(C)cc(O)cc3o2)cc(OC)c1OC

>  <assay-endpoint>
EC50

>  <meas-value>
112 µM

$$$$
>  <compound>
NC(N)=NN=C1CCCCC1

>  <assay-endpoint>
EC50

>  <meas-value>
> 200 µM

$$$$
>  <compound>
CCOC(=O)NC(Nc1cc(Cl)ccc1OC)(C(F)(F)F)C(F)(F)F

>  <assay-endpoint>
EC50

>  <meas-value>
> 200 µM

$$$$
>  <compound>
NC(=O)CSSCC(N)=O

>  <assay-endpoint>
EC50

>  <meas-value>
21.4 µM

$$$$
>  <compound>
O=C(N/N=C/c1ccc(Cl)cc1)c1ccccc1Nc1ccccc1C(=O)N/N=C/c1ccc(Cl)cc1

>  <assay-endpoint>
EC50

>  <meas-value>
55 µM

$$$$
>  <compound>
CC(C)(C)OC(=O)N1N=NC2C3OC(CC3=O)C21 (stereo not given)

>  <assay-endpoint>
EC50

>  <meas-value>
> 708 µM

$$$$
>  <compound>
CSC1=C(C#N)C(=O)N(c2ccc(C)cc2)C(=O)C1C#N (stereo not given)

>  <assay-endpoint>
EC50

>  <meas-value>
> 200 µM

$$$$
>  <compound>
CN1C(=O)c2ccccc2Cc2c(N3CCCC3)ncnc21

>  <assay-endpoint>
EC50

>  <meas-value>
> 17.8 µM

$$$$
>  <compound>
O=C1CCC(c2ccc(Cl)cc2)=NN1c1nsc2ccccc12

>  <assay-endpoint>
EC50

>  <meas-value>
> 39.8 µM

$$$$
>  <compound>
NCCCN(CCCN)CCCNCc1c2ccccc2c(CNCCCN(CCCN)CCCN)c2ccccc12

>  <assay-endpoint>
EC50

>  <meas-value>
4.79 µM

$$$$
>  <compound>
COc1ccc(NC(=O)CC(=O)N2N=C(N(CCC#N)c3ccc(Cl)cc3)CC2c2ccccc2)cc1 (stereo not given)

>  <assay-endpoint>
EC50

>  <meas-value>
> 36.3 µM

$$$$
>  <compound>
CCOC(=O)C(=O)/C(=C/N1CC(=O)NC1=S)C(=O)OCC

>  <assay-endpoint>
EC50

>  <meas-value>
> 200 µM

$$$$
>  <compound>
COP(=O)(OC)c1nc(P(=O)(OC)OC)nc(P(=O)(OC)OC)n1

>  <assay-endpoint>
EC50

>  <meas-value>
> 110 µM

$$$$
>  <compound>
CCOC(=O)C1SC(=Nc2ccc(Cl)c(Cl)c2)N=C1C (stereo not given)

>  <assay-endpoint>
EC50

>  <meas-value>
> 11.5 µM

$$$$
>  <compound>
CCCCc1c2c(nc3c1CCCC3=O)CCCC2

>  <assay-endpoint>
EC50

>  <meas-value>
> 195 µM

$$$$
>  <compound>
C#CCOCn1cnc2c(Sc3c([N+](=O)[O-])ncn3C)ncnc21

>  <assay-endpoint>
EC50

>  <meas-value>
> 105 µM

$$$$
>  <compound>
COCc1cc(=O)oc2c3c(c4c(c12)OC(C)(C)C=C4)O[C@H](C)[C@@H](C)[C@H]3O

>  <assay-endpoint>
EC50

>  <meas-value>
174 µM

$$$$
>  <compound>
CC(=O)CCS(=O)(=O)O

>  <assay-endpoint>
EC50

>  <meas-value>
> 200 µM

$$$$
>  <compound>
CC(=O)OCC1OC(SC2=N/C(=C\c3ccc(Br)s3)C(=O)N2c2ccccc2)C(OC(C)=O)C(OC(C)=O)C1OC(C)=O (stereo not given)

>  <assay-endpoint>
EC50

>  <meas-value>
> 200 µM

$$$$
>  <compound>
O=C(NO)c1ccc(OCc2ccccc2)cc1

>  <assay-endpoint>
EC50

>  <meas-value>
> 200 µM

$$$$
>  <compound>
NC(=S)N/N=C1\NC(=O)/C(=C/c2ccc3c(c2)OCO3)S1

>  <assay-endpoint>
EC50

>  <meas-value>
> 200 µM

$$$$
>  <compound>
O=C1NC2C(=O)N(Cc3ccccc3)C(=O)C2N1 (stereo not given)

>  <assay-endpoint>
EC50

>  <meas-value>
> 29.5 µM

$$$$
>  <compound>
CCCNCCOc1nc(Cl)c(Cl)cc1Cl

>  <assay-endpoint>
EC50

>  <meas-value>
> 200 µM

$$$$
>  <compound>
CNS(=O)(=O)NN(C)S(=O)(=O)c1ccc2ccccc2c1

>  <assay-endpoint>
EC50

>  <meas-value>
> 759 µM

$$$$
>  <compound>
O=C(Nc1cccc(C2=NCCN2)c1)Nc1cccc(C2=NCCN2)c1

>  <assay-endpoint>
EC50

>  <meas-value>
> 200 µM

$$$$
>  <compound>
Cc1cn(C2CC(O)C(CN(O)CCC3CC(n4cc(C)c(=O)[nH]c4=O)OC3CO)O2)c(=O)[nH]c1=O (stereo not given)

>  <assay-endpoint>
EC50

>  <meas-value>
> 200 µM

$$$$
>  <compound>
O=C1c2ccccc2C(=O)c2c(/C=C\N3CCCCC3)ccnc21

>  <assay-endpoint>
EC50

>  <meas-value>
> 8.51 µM

$$$$
>  <compound>
CC(c1ccccc1)/[N+]([O-])=C/c1ccccc1 (stereo not given)

>  <assay-endpoint>
EC50

>  <meas-value>
> 1120 µM

$$$$
>  <compound>
Oc1ccc2ccccc2c1C1=NNc2n[nH]c(=S)n2N1

>  <assay-endpoint>
EC50

>  <meas-value>
> 148 µM

$$$$
>  <compound>
Nc1nnnn1-c1ccccc1

>  <assay-endpoint>
EC50

>  <meas-value>
> 200 µM

$$$$
>  <compound>
O=S1Cc2nc3ccccc3n2C1c1c(F)cccc1F (stereo not given)

>  <assay-endpoint>
EC50

>  <meas-value>
> 117 µM

$$$$
>  <compound>
O=C(CNC(=O)Nc1ccc(NC(=O)NCC(=O)Nc2ccc(C3=NCCN3)cc2)cc1)Nc1ccc(C2=NCCN2)cc1

>  <assay-endpoint>
EC50

>  <meas-value>
81.3 µM

$$$$
>  <compound>
N#C/C(=C\c1cc(Br)c(O)c(Br)c1)c1ccccn1

>  <assay-endpoint>
EC50

>  <meas-value>
> 200 µM

$$$$
>  <compound>
CCOC(=O)c1nc2ccc(C(F)(F)F)cc2nc1Oc1cc(OC)cc(OC)c1

>  <assay-endpoint>
EC50

>  <meas-value>
> 200 µM

$$$$
